# Test system: Liver
# Assay Procedure: Biodistribution in liver of B16F0 tumor bearing C57BL/6J mouse at 0.37-0.74 MBq, iv after 6 hrs
# Format: ADME, organism-based
# Setup Conditions: in vivo
Result Type: Drug uptake (% ID/g)

Compound: CCN(CC)CCNC(=O)c1ccccc1[123I]
Result Type: Drug uptake
Unit Of Measurement: % ID/g
Reported Value: 0.73
--
Compound: CCN(CC)CCNC(=O)c1cc([123I])c(NS(C)(=O)=O)cc1OC
Result Type: Drug uptake
Unit Of Measurement: % ID/g
Reported Value: 1.2
--
Compound: O=C(NC1CCN(CCF)CC1)c1ccc(I)cc1
Result Type: Drug uptake
Unit Of Measurement: % ID/g
Reported Value: 3.8
--
Compound: CCCCN(C)CCCCNC(=O)c1cc([123I])c(NC(C)=O)cc1OC
Result Type: Drug uptake
Unit Of Measurement: % ID/g
Reported Value: 1.8
--
Compound: CCN(CC)CCNC(=O)c1cc([123I])c(NS(=O)(=O)c2ccc(C)cc2)cc1OC
Result Type: Drug uptake
Unit Of Measurement: % ID/g
Reported Value: 1.5
--
Compound: CCCCNCCCCNC(=O)c1cc([123I])c(NC(C)=O)cc1OC
Result Type: Drug uptake
Unit Of Measurement: % ID/g
Reported Value: 1.3
--
Compound: CCN(CC)CCNC(=O)c1cc([123I])c(NC(C)=O)cc1OC
Result Type: Drug uptake
Unit Of Measurement: % ID/g
Reported Value: 2.3
--
Compound: CCCN(CCC)CCCCNC(=O)c1cc([123I])c(NC(C)=O)cc1OC
Result Type: Drug uptake
Unit Of Measurement: % ID/g
Reported Value: 1.8
--
Compound: O=C(NC1CCN(CCO)CC1)c1ccc([123I])cc1
Result Type: Drug uptake
Unit Of Measurement: % ID/g
Reported Value: 9.2
--
Compound: CCCN(CCC)CCCCNC(=O)c1ccc([123I])cc1
Result Type: Drug uptake
Unit Of Measurement: % ID/g
Reported Value: 33
--
Compound: COc1cc(NC(C)=O)c([123I])cc1C(=O)NCCCCN(C)C(C)C
Result Type: Drug uptake
Unit Of Measurement: % ID/g
Reported Value: 1.5
--
Compound: COc1cc(NC(C)=O)c([123I])cc1C(=O)NCCCCN1CC2CCC1C2 (stereo not drawn)
Result Type: Drug uptake
Unit Of Measurement: % ID/g
Reported Value: 0.8
--
Compound: O=C(NCCCCN1CC2CCC1C2)c1ccc([123I])cc1 (stereo not drawn)
Result Type: Drug uptake
Unit Of Measurement: % ID/g
Reported Value: 27

###

# Tested on: Heart
# Assay Procedure: Biodistribution in heart of B16F0 tumor bearing C57BL/6J mouse at 0.37-0.74 MBq, iv after 24 hrs
# Type: ADME, organism-based
# Setup Conditions: in vivo
Each item that follows carries a reported Drug uptake.

Molecule: CCN(CC)CCNC(=O)c1cc([123I])c(NC(C)=O)cc1OC
Drug uptake [% ID/g]: 0.12
//
Molecule: COc1cc(NC(C)=O)c([123I])cc1C(=O)NCCCCN(C)C(C)C
Drug uptake [% ID/g]: 0.07
//
Molecule: CCCCNCCCCNC(=O)c1cc([123I])c(NC(C)=O)cc1OC
Drug uptake [% ID/g]: 0.06
//
Molecule: O=C(NC1CCN(CCF)CC1)c1ccc(I)cc1
Drug uptake [% ID/g]: 0.09
//
Molecule: CCN(CC)CCNC(=O)c1ccccc1[123I]
Drug uptake [% ID/g]: 0.07
//
Molecule: CCN(CC)CCNC(=O)c1cc([123I])c(NS(C)(=O)=O)cc1OC
Drug uptake [% ID/g]: 0.04
//
Molecule: CCCN(CCC)CCCCNC(=O)c1ccc([123I])cc1
Drug uptake [% ID/g]: 0.12
//
Molecule: CCCN(CCC)CCCCNC(=O)c1cc([123I])c(NC(C)=O)cc1OC
Drug uptake [% ID/g]: 0.14
//
Molecule: CCN(CC)CCNC(=O)c1cc([123I])c(NS(=O)(=O)c2ccc(C)cc2)cc1OC
Drug uptake [% ID/g]: 0.03
//
Molecule: CCCCN(C)CCCCNC(=O)c1cc([123I])c(NC(C)=O)cc1OC
Drug uptake [% ID/g]: 0.12
//
Molecule: O=C(NCCCCN1CC2CCC1C2)c1ccc([123I])cc1 (stereo not drawn)
Drug uptake [% ID/g]: 0.13
//
Molecule: COc1cc(NC(C)=O)c([123I])cc1C(=O)NCCCCN1CC2CCC1C2 (stereo not drawn)
Drug uptake [% ID/g]: 0.03
//
Molecule: O=C(NC1CCN(CCO)CC1)c1ccc([123I])cc1
Drug uptake [% ID/g]: 0.49
